- target.of.assay: MAP/microtubule affinity-regulating kinase 4 (Homo sapiens) (UniProt Q96L34);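 also: values are averaged percent inhibition of MARK4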
- Sequence (whole entry): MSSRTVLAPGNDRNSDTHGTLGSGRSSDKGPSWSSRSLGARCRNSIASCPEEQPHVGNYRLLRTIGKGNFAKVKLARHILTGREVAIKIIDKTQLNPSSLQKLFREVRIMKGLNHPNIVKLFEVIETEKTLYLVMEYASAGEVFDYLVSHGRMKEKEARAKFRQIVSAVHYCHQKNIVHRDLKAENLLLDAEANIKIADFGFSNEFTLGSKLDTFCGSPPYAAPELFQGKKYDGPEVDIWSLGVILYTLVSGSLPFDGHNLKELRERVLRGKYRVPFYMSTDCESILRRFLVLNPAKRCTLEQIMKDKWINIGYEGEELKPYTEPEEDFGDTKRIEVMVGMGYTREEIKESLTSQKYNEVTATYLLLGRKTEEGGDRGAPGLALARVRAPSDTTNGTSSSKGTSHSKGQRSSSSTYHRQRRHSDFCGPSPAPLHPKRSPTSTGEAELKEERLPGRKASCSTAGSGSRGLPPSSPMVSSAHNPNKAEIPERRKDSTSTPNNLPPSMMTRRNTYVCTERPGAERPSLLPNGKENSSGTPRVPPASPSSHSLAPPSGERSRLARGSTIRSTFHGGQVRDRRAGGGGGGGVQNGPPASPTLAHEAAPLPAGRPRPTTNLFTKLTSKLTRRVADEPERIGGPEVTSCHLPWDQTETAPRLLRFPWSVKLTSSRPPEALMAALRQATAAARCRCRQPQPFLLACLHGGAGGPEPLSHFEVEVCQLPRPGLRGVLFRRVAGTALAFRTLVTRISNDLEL
- study.conditions: at 0.1 µM
Please provide measured inhibition for the entries that follow.
Quick reminder: number only, in %, skip the unit.

Inquiry: Field request: inhibition | item: CCCNc1cccc(-n2ncc3c(N/N=C/c4ccncc4)ncnc32)c1
Reply text: 0.58

Inquiry: Input CCN1CCC(C(=O)Nc2n[nH]c3nnc(-c4cccc(F)c4F)cc23)CC1
Reply text: 0.44

Inquiry: Input COc1cc(N2CCN(C(C)C)CC2)ccc1Nc1nc(Nc2cccc(F)c2C(=O)O)c2cc[nH]c2n1
Reply text: 1.88

Inquiry: Input CCOc1ccc2c(-c3ccnc(Nc4cc(OC)cc(C(F)(F)F)c4)n3)cnn2n1
Reply text: -0.72

Inquiry: Input NS(=O)(=O)c1ccc(N/N=C2\C(=O)Nc3ccc(C(=O)NCc4ccncc4)cc32)cc1
Reply text: 4.76

Inquiry: Input COc1cccc(Nc2nccc(-c3cnn4ncccc34)n2)c1
Reply text: 0.65

Inquiry: Input COC(=O)Nc1nc2ccc(Oc3ccc(NC(=O)Nc4cc(C(F)(F)F)ccc4F)cc3)cc2s1
Reply text: -0.51

Inquiry: Input Fc1ccc(Nc2nccc(-c3c(-c4ccc(C(F)(F)F)cc4)nn4ncccc34)n2)cc1F
Reply text: 1.29

Inquiry: Input CS(=O)(=O)CCNCc1ccoc1-c1ccc2ncnc(Nc3ccc(OCc4ccccc4)cc3)c2c1
Reply text: -0.56

Inquiry: Input CCS(=O)(=O)c1ccc(OC)c(Nc2ncc(-c3cccc(F)c3)o2)c1
Reply text: 2.11

Inquiry: Input COc1ccc(Nc2ncc(-c3ccccc3)o2)cc1OC
Reply text: 2.3

Inquiry: Input O=C(O[C@H]1CN[C@H](C#Cc2cc3ncnc(Nc4ccc(OCc5cccc(F)c5)c(Cl)c4)c3s2)C1)N1CCOCC1
Reply text: 1.79

Inquiry: Input Cc1ccc(-c2cc3c(NC(=O)C4CC4)ncnc3o2)cc1
Reply text: 1.77

Inquiry: Input FC(F)(F)CNc1nccc(-c2cnn3ncccc23)n1
Reply text: 1.01

Inquiry: Input N#Cc1cccc(Nc2ncc(-c3ccccc3)o2)c1
Reply text: -0.09

Inquiry: Input COc1ccc(-c2nn3ncccc3c2-c2ccnc(Nc3ccc(F)c(F)c3)n2)cc1
Reply text: 1.45

Inquiry: Input OCCCNc1nccc(-c2c(-c3ccc(F)cc3)nn3cc(C(F)(F)F)ccc23)n1
Reply text: 0.24

Inquiry: Input O=C(Nc1n[nH]c2nnc(-c3cccnc3)cc12)C1CC1
Reply text: 0.54

Inquiry: Input Cn1c(-c2nonc2N)nc2cnccc21
Reply text: 1.25

Inquiry: Input COc1ccc2ncn(-c3cc(O[C@H](C)c4ccccc4C(F)(F)F)c(C(N)=O)s3)c2c1
Reply text: -0.65

Inquiry: Input c1cnn2ncc(-c3ccnc(NCCCN4CCOCC4)n3)c2c1
Reply text: 1.05

Inquiry: Input NS(=O)(=O)c1cccc(N/C=C2\C(=O)Nc3ccccc32)c1
Reply text: 4.17

Inquiry: Input COC(=O)Nc1nc2cc(Oc3ccc(NC(=O)Nc4ccccc4)cc3)ccc2[nH]1
Reply text: 1.19

Inquiry: Input Cc1c2ccc(N(C)c3ccnc(Nc4cccc(S(N)(=O)=O)c4)n3)cc2nn1C
Reply text: 2.63

Inquiry: Input Fc1cccc(COc2ccc(Nc3ncncc3C#Cc3ccccc3)cc2Cl)c1
Reply text: 0.48

Inquiry: Input Cc1nnc(-c2cccc(-c3ccc(C(=O)NCC4CC4)cc3)c2)o1
Reply text: 1.79

Inquiry: Input CCS(=O)(=O)c1ccc(OC)c(Nc2ncc(-c3cccc(C(C)=O)c3)o2)c1
Reply text: 0.67

Inquiry: Input O=C(O[C@H]1CN[C@H](C#Cc2cc3ncnc(Nc4ccc5c(ccn5Cc5cc(F)ccc5F)c4)c3s2)C1)N1CCOCC1
Reply text: 2.82

Inquiry: Input COc1cc(Nc2ncc(-c3ccccc3)o2)cc(OC)c1
Reply text: 1.86

Inquiry: Input NC(=O)c1ccc2c(-c3ccnc(NCCCO)n3)c(-c3ccc(F)cc3)nn2c1
Reply text: 1.93

Inquiry: Input CS(=O)(=O)CCNCc1ccc(-c2ccc3ncnc(Nc4ccc(OCc5ccccc5)cc4)c3c2)o1
Reply text: 2.33

Inquiry: Input CC(C)c1ccc(-c2cc(-c3c[nH]nc3-c3ccccn3)ccn2)cc1
Reply text: -0.28

Inquiry: Input CS(=O)(=O)CCNCc1ccc(-c2ccc3ncnc(Nc4ccc(OCc5cccc(C(F)(F)F)c5)cc4)c3c2)o1
Reply text: 1.47

Inquiry: Input N#Cc1ccc2c(-c3ccnc(NC4CC4)n3)c(-c3ccc(F)cc3)nn2c1
Reply text: 0.81

###

- target.of.assay: Serine/threonine-protein kinase Sgk1 (Homo sapiens) (UniProt O00141);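 also: mean percent inhibition of SGK1, from the GSK PKIS screening panel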
- Sequence (whole entry): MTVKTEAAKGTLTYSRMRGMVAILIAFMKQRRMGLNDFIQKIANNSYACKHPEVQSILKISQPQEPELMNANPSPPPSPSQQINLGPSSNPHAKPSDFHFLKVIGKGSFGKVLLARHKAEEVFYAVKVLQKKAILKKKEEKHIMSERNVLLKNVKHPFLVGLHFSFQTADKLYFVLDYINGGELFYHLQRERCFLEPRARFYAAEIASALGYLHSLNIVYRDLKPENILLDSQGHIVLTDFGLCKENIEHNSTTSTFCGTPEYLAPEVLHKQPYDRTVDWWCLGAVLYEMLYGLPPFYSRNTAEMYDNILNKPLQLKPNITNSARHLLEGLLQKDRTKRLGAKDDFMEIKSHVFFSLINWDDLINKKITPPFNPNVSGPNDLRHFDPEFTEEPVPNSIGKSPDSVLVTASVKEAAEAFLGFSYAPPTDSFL
- study.conditions: at 1 µM
Please provide measured inhibition for the entries that follow.
Quick reminder: number only, in %, skip the unit.

Inquiry: Field request: inhibition | item: N#Cc1cccc(Nc2ncc(-c3ccccc3)o2)c1
Reply text: 7.53

Inquiry: Input CS(=O)(=O)Nc1ccc(-c2cc(-c3ccccc3)cc(C(N)=O)c2N)cc1
Reply text: 2.29

Inquiry: Input NS(=O)(=O)c1ccc(N/N=C2\C(=O)Nc3cccc(CCc4ccncc4)c32)cc1
Reply text: 1.65

Inquiry: Input COc1ccc(Nc2ncc(-c3ccccc3)o2)cc1OC
Reply text: 9.75

Inquiry: Input CCS(=O)(=O)c1ccc(OC)c(Nc2ncc(-c3cccc(C(C)=O)c3)o2)c1
Reply text: 5.11

Inquiry: Input COC(=O)Nc1nc2ccc(Oc3ccc(NC(=O)Nc4cc(C(F)(F)F)ccc4F)cc3)cc2s1
Reply text: 0.95

Inquiry: Input NS(=O)(=O)c1cccc(N/C=C2\C(=O)Nc3ccccc32)c1
Reply text: 26.9

Inquiry: Input CCn1c(-c2nonc2N)nc2cncc(C(=O)NCCNC)c21
Reply text: 18.1

Inquiry: Input CN1CCC(n2cnc(-c3ccc(F)cc3)c2-c2ccnc(NCCO)n2)CC1
Reply text: 6.71

Inquiry: Input Cc1c2ccc(N(C)c3ccnc(Nc4cccc(S(N)(=O)=O)c4)n3)cc2nn1C
Reply text: 4.14

Inquiry: Input OCCCNc1nccc(-c2c(-c3ccc(F)cc3)nn3cc(C(F)(F)F)ccc23)n1
Reply text: 1.43

Inquiry: Input CC1(C)CC(n2cnc(-c3ccc(F)cc3)c2-c2ccnc(N)n2)CC(C)(C)N1
Reply text: 5.28

Inquiry: Input CC1=C(C(=O)Nc2ccc3[nH]ncc3c2)C(c2ccc(F)cc2)N=C(c2ccc(C(F)(F)F)nc2)N1 (stereo not given)
Reply text: 2.75

Inquiry: Input N#Cc1ccc2c(-c3ccnc(NC4CC4)n3)c(-c3ccc(F)cc3)nn2c1
Reply text: 1.98

Inquiry: Input CCS(=O)(=O)c1ccc(OC)c(Nc2ncc(-c3cccc(F)c3)o2)c1
Reply text: 4
